Target: EGFR (d746-750) (Homo sapiens (Human), UniProt P00533, DEL746-750)
Sequence (P00533 other isoform, or with tags, fused parts or gaps del 1-694/del 746-750 limits assumed): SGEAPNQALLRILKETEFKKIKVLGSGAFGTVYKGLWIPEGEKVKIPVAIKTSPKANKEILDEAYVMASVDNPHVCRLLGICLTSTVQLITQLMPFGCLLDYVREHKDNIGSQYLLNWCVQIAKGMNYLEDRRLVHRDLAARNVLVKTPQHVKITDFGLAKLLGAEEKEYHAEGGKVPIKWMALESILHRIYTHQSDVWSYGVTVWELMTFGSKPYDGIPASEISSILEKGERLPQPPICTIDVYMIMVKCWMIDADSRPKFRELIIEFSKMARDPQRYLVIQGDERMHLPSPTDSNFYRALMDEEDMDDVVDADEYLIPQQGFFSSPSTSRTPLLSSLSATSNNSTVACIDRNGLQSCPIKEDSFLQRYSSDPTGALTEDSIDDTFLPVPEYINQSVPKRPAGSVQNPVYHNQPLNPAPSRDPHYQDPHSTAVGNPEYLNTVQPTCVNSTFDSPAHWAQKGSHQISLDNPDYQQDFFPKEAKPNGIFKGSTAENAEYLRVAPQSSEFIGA
Assay: Biochemical EGFR inhibition assay, EGFR (d746-750)
Conditions: Caliper mobility shift; 1.0 mM ATP or ATP Km; read-out: Enz EGFR_Exon19-del746-750 IC50
Mark TRUE only when IC50 stays strictly below 2 nM. Values equal to the cut-off are FALSE.

COc1cc2ncnc(-c3cn(C)nc3-c3ccccc3)c2nc1NC(=O)C1(C)CCCO1 (stereo not shown)    TRUE
COc1cc2ncnc(-c3cn(C4CC4)nc3-c3ccccc3)c2nc1NC(=O)c1cnn(C(F)(F)F)c1    TRUE
COc1cc2ncnc(-c3cn(C4COC4)nc3-c3ccccc3)c2cc1OC(=O)N1CCN(C)C[C@@H]1C    FALSE
COc1cc2ncnc(-c3cn(C)nc3-c3ccccc3)c2nc1OC(=O)N1CCOC[C@H]1C    FALSE
CCOc1cc2ncnc(-c3cn(C)nc3-c3ccccc3)c2cc1OC1CCN(C(=O)CC)CC1    TRUE

In plain terms, does `COc1cc2ncnc(-c3cnn(C(F)(F)F)c3-c3ccccc3)c2cc1NC(=O)C12CC(C1)C2` come in under 2 nM for IC50? FALSE

In plain terms, does `CCC(=O)Nc1cc2c(-c3cn(C)nc3-c3ccccc3)ncnc2cc1-c1ncccn1` come in under 2 nM for IC50? TRUE
